Hello, the source for this data is ChEMBL document CHEMBL1157539, in case you need it.

In this section we review reported Inhibition values for a set of compounds.
Test system: Plasmodium falciparum
TEST_SUMMARY: GSK_TCMDC: Inhibition of Plasmodium falciparum Dd2 in whole red blood cells, using parasite LDH activity as an index of growth. Test compounds present at 2uM
Assay type: functional
Record the value in %, omitting the unit from your answer.

> print(dat)
                                   compound  measurement.type  reading
1  COc1ccc2nccc([C@@H](O)CN3CCC(NCc4ccc5c(c4)sc(=O)n5C)CC3)c2c1.O=C(O)C(=O)O        Inhibition       72
2  Cc1cccc2nc(-c3cccc(-c4ccc(CN5CCC(C(N)=O)CC5)cc4)c3)[nH]c12.O=C(O)C(F)(F)F        Inhibition        9
3  CCCCN1CC[C@@H](CCC(O)c2cc(OCCC)nc3ccc(OC)cc23)[C@@H](CC)C1.O=C(O)C(=O)O (stereo partly drawn)        Inhibition       99
4  CCCCCCCCNCC(O)c1cc(-c2ccc(Cl)cc2)nc2cc(C)ccc12 (stereo not drawn)        Inhibition       99

Which measured Inhibition value corresponds to `CC(C)CN1CCCN(Cc2cccc(NC(=O)c3cc4ccccc4s3)c2)CC1.O=C(O)C(F)(F)F` ? 6

Please do the same for `COc1ccc(-c2ccc3c(-c4cccc(S(C)(=O)=O)c4)cnc(N)c3c2)cc1` as well. 12

Lookup CC1CC1C(=O)NC1CCN(CC2(c3ccccc3)CCCCC2)CC1 (stereo not drawn) 95

Try the compound `Oc1ccc2ccccc2c1CNCC1CCCCC1` 93
